Sourced from patent US20260183302A1

- Test system: Human B Lymphocyte cell line, SU-DHL-8
- Test summary: Relative cell viability, SU-DHL-8 (CCK-8)
- Type: cell-based
- Stated conditions: SU-DHL-8, 1 μM, 48 hours, untreated (DMSO) = 100%

{"Compound": "Nc1ncccc1C(=O)NCCCCCCCCCCCCN1CC=CC1", "Relative cell viability (%)": 34.26}
{"Compound": "CC1CNCCN1CCCCCCCCCCCCNC(=O)c1cccnc1N (stereo not drawn)", "Relative cell viability (%)": 1.18}
{"Compound": "Cl.Nc1ncccc1C(=O)NCCCCCCCCCCCCN1CC[C@H](N)C1", "Relative cell viability (%)": 9.20}
{"Compound": "Nc1ncccc1C(=O)NCCCCCCCCCCCCN1CCS(=O)(=O)CC1", "Relative cell viability (%)": 9.73}
{"Compound": "CC1CCN(CCCCCCCCCCCCNC(=O)c2cccnc2N)C1 (stereo not drawn)", "Relative cell viability (%)": 8.38}
{"Compound": "Cl.O=C(NCCCCCCCCCCCCN1CCNCC1)c1ccc(-c2ccccc2)o1", "Relative cell viability (%)": 7.19}
{"Compound": "Nc1ncccc1C(=O)NCCCCCCCCCCCCN1CCN(CCO)CC1", "Relative cell viability (%)": 6.42}
{"Compound": "CC1CCCN(CCCCCCCCCCCCNC(=O)c2cccnc2N)CC1 (stereo not drawn)", "Relative cell viability (%)": 11.48}
{"Compound": "CC1CN(CCCCCCCCCCCCNC(=O)c2cccnc2N)CC(C)O1 (stereo not drawn)", "Relative cell viability (%)": 9.64}
